test_system: T1, human CC chemokine receptor 4 (CCR4) on CCR4/EL-4 cells (human, UniProt P51679 1-360)
T1 construct: also called hCCR4; human CCR4-high-expressing cell
T1 sequence: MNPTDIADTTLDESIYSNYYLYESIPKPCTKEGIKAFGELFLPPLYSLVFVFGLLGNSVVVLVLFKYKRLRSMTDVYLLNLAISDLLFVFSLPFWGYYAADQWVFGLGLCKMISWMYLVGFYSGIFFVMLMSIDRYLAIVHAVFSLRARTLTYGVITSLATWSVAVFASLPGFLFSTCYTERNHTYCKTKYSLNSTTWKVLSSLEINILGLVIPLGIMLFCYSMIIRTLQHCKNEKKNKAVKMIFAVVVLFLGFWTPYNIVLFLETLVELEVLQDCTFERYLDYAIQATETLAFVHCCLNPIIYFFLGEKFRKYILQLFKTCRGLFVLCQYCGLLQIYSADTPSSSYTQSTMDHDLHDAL
measurement_notes: flow cytometry on CCR4/EL-4 cells, antibody at 10 µg/ml

binder: anti-CCR4 CDR-grafted antibody Ga11LV3 (antibody, human IgG1, V domains shown, Tested as COS-7 supernatant and as purified antibody from YB2/0; also called pKANTEX2160Ga11LV3; antibody of producing cell KM8760 (FERM BP-8130)) VH: EVQLVESGGDLVQPGRSLRLSCAASGFIFSNYGMSWVRQAPGKGLEWVATISSASTYSYYPDSVKGRFTISRDNAKNSLYLQMNSLRVEDTALYYCGRHSDGNFAFGYWGQGTLVTVSS VL: DVLMTQSPLSLPVTPGEPASISCRSSRNIVHINGDTYLEWYLQKPGQSPQLLIYKVSNRFSGVPDRFSGSGSGTDFTLKISRVEAEDVGVYYCFQGSLLPWTFGQGTKVEIK
binding result: binds

binder: anti-CCR4 CDR-grafted antibody Ga11LV1 (antibody, human IgG1, V domains shown, Tested as COS-7 supernatant and as purified antibody from YB2/0; also called pKM2160Ga11 LV1) VH: EVQLVESGGDLVQPGRSLRLSCAASGFIFSNYGMSWVRQAPGKGLEWVATISSASTYSYYPDSVKGRFTISRDNAKNSLYLQMNSLRVEDTALYYCGRHSDGNFAFGYWGQGTLVTVSS VL: DVVMTQSPLSLPVTPGEPASISCRSSRNIVHINGDTYLEWYLQKPGQSPQLLIYKVSNRFSGVPDRFSGSGSGTDFTLKISRVEAEDVGVYYCFQGSLLPWTFGQGTKVEIK
binding result: binds

binder: anti-CCR4 CDR-grafted antibody Ga12LV1 (antibody, human IgG1, V domains shown, Tested as COS-7 supernatant and as purified antibody from YB2/0; also called pKM2160Ga12LV1) VH: EVQLVESGGDLVQPGRSLRLSCAASGFIFSNYGMSWVRQAPDKRLEWVATISSASTYSYYPDSVKGRFTISRDNAKNSLYLQMNSLRVEDTALYYCARHSDGNFAFGYWGQGTLVTVSS VL: DVVMTQSPLSLPVTPGEPASISCRSSRNIVHINGDTYLEWYLQKPGQSPQLLIYKVSNRFSGVPDRFSGSGSGTDFTLKISRVEAEDVGVYYCFQGSLLPWTFGQGTKVEIK
binding result: binds
